Reference source for all entries: PubChem BioAssay AID2060600

Tested on: 996289-038-R-J1-PDC complex spheroid viability;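 further: spheroids exposed to the agents for 7 days before readout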
protocol-details: Anticancer human tumor 996289-038-R-J1-PDC patient-derived colon adenocarcinoma cell line growth inhibition [CLK]
experimental-setup: second compound 1 µM; first compound 3.16 µM; active compounds read low
Recorded viability, T/C, one value per entry.
measured-parameter: viability, T/C (%)

compound	measured-parameter	recorded-number
Nc1ccccc1NC(=O)c1ccc(CNC(=O)OCc2cccnc2)cc1 + CNC(=O)c1ccc(Nc2nc(OC3CCCC3)c3c(-c4ccc5nc(C)oc5c4)c[nH]c3n2)c(OC)c1	viability, T/C	38.8
CC1COCCN1c1cc(C2(S(C)(=N)=O)CC2)nc(-c2ccnc3[nH]ccc23)n1 (stereo not given) + CNC(=O)c1ccc(Nc2nc(OC3CCCC3)c3c(-c4ccc5nc(C)oc5c4)c[nH]c3n2)c(OC)c1	viability, T/C	54.2
COc1cccc2c1C(=O)c1c(O)c3c(c(O)c1C2=O)CC(O)(C(=O)CO)CC3OC1CC(N)C(O)C(C)O1 (stereo not given) + CN1CCN(c2cc(C(=O)Nc3cc4cc(-c5cnn(C)c5)ccc4cn3)ccn2)CC1	viability, T/C	4.94
COC1C=CCC(C)C(C)S(=O)(=O)NC(=O)c2ccc3c(c2)N(CC2CCC21)CC1(CCCc2cc(Cl)ccc21)CO3 (stereo not given) + CNC(=O)c1ccc(Nc2nc(OC3CCCC3)c3c(-c4ccc5nc(C)oc5c4)c[nH]c3n2)c(OC)c1	viability, T/C	45.6
COc1ccc([C@@H](O)c2cc(-c3ncnc4cc(N5CCOCC5)ccc34)c(F)cc2Cl)nn1 + CN1CCN(c2cc(C(=O)Nc3cc4cc(-c5cnn(C)c5)ccc4cn3)ccn2)CC1	viability, T/C	3.66
C#Cc1c(F)ccc2cc(O)cc(-c3ncc4c(N5CC6CCC(C5)N6)nc(OCC56CCCN5CC(F)C6)nc4c3F)c12 (stereo not given) + CNC(=O)c1ccc(Nc2nc(OC3CCCC3)c3c(-c4ccc5nc(C)oc5c4)c[nH]c3n2)c(OC)c1	viability, T/C	22.1
CC(CO)NC(=O)c1cc(-c2ccc(Cl)cc2)nn(-c2cnn(C)c2)c1=O (stereo not given) + CNC(=O)c1ccc(Nc2nc(OC3CCCC3)c3c(-c4ccc5nc(C)oc5c4)c[nH]c3n2)c(OC)c1	viability, T/C	57.5
C=C(F)C(=O)N1CCN(c2nc(OCC3CCCN3C)nc3c2CCN(c2cccc4cccc(Cl)c24)C3)CC1CC#N (stereo not given) + CN1CCN(c2cc(C(=O)Nc3cc4cc(-c5cnn(C)c5)ccc4cn3)ccn2)CC1	viability, T/C	1.53
COC1C=CCC(C)C(C)S(=O)(=O)NC(=O)c2ccc3c(c2)N(CC2CCC21)CC1(CCCc2cc(Cl)ccc21)CO3 (stereo not given) + CN1CCN(c2cc(C(=O)Nc3cc4cc(-c5cnn(C)c5)ccc4cn3)ccn2)CC1	viability, T/C	4.86
CC1(C)CCC(CN2CCN(c3ccc(C(=O)NS(=O)(=O)c4ccc(NCC5CCOCC5)c([N+](=O)[O-])c4)c(Oc4cnc5[nH]ccc5c4)c3)CC2)=C(c2ccc(Cl)cc2)C1 + CNC(=O)c1ccc(Nc2nc(OC3CCCC3)c3c(-c4ccc5nc(C)oc5c4)c[nH]c3n2)c(OC)c1	viability, T/C	100
